Source listed as PubChem BioAssay (NCI).

tested on: BT-549 breast; experiment: NCI-60 one-dose screen, 48 h (100 = growth as untreated, 0 = no growth, -100 = all killed); settings: 10 µM unless noted
About 83,000 compounds went through this panel and 20% of them were active in at least one assay; those are over-represented in the sample as a whole.
Binarize growth at 70%; below is met, at or above is not met.

Consider "Cc1cccc2c(=O)c3c(sc12)c(N1CCNCC1)nc1ccccc13" . Does its growth lie strictly below 70%?
not met

Bench note: check whether O=S(=O)(Nc1ncccn1)c1ccc(NC2Nc3nc4ccccc4nc3S2)cc1 (centres undefined) shows growth below 70%
not met

growth under 70%? Item: "COc1cc2nc(NC3CCC3)nc(NC3CCN(C(C)C)CC3)c2cc1OC"
not met

Item "CCOc1c(Br)cc(C2C(C(=O)OC)=CN(C)C=C2C(=O)OC)cc1OC" : growth beneath 70%, strictly?
not met

Confirm or reject: growth of "Cc1ccc(C(=O)c2oc3ccc4c(C)cc(=O)oc4c3c2C)cc1" lies strictly below 70%
met

Please state whether growth is below 70% for "O=C(/C=C/c1cccc(Cl)c1)OCc1ccc2cc1OCC#C/C=C\C#CCO2"
not met

Please indicate whether the reported growth of COc1ccc(-c2nsc3c2NC(=O)CC3c2ccc3c(c2)OCCO3)cc1 (centres undefined) is strictly below 70%.
met

Strictly below 70%: is that where growth of "c1ccc2cc3c(Nc4ccc(N5CCOCC5)cc4)ccnc3cc2c1" sits?
not met

I'd appreciate it if you could check whether "COc1ccc(Cn2cc(Cn3c(=O)c(-c4nc5ccccc5[nH]4)cc4ccccc43)nn2)c(OC)c1OC" has growth smaller than 70%.
met

growth strictly < 70% for this compound? "COC(=O)/C(CCC=C(C)C)=C1\[C@@H](OC(C)=O)C[C@@]2(C)[C@H]1CC(=O)[C@H]1[C@@]3(C)CC[C@H](NCc4ccccc4)[C@@H](C)[C@@H]3CC[C@@]12C"
not met

# TODO verify growth < 70% strictly for this compound: "O=C(O)c1cn(C2CC2)c2cc(N3CCN(C(=O)C[n+]4ccccc4)CC3)c(F)cc2c1=O"
not met

State whether 70% exceeds growth recorded for "C=C[C@@H]1CCC/C=C/[C@@H]2C[C@H](O)C[C@H]2[C@H](O)/C=C/C(=O)O1" .
met

Does the reported growth of CC1=NCC2NC(=O)NC(C)=C12 (centres undefined) stay below 70%?
not met

Decide: growth of "CNC(=O)c1cc(Oc2ccc(CC(=O)Nc3cc(C(C)(C)C)cn3C)cc2)ccn1" strictly below 70%?
met

Is 70% strictly greater than the compound's reported growth? compound: "COc1cc(C(=O)Nc2ccc(-c3nc4ccccc4[nH]3)cc2)cc(OC)c1OC"
met

Hi there! Is growth for "COC(=O)/C(CCC=C(C)C)=C1\[C@@H](OC(C)=O)C[C@@]2(C)[C@H]1C[C@@H](O)[C@H]1[C@@]3(C)CC[C@H](NCc4ccccc4)[C@@H](C)[C@@H]3CC[C@@]12C" below 70%, do you know?
not met

Quick check: growth of "COC(=O)/C(=C\c1c(C)[nH]c2ccccc12)S(=O)(=O)c1ccccc1" under 70%?
met

In the record for "CCOC(=O)c1cc2c(n1Cc1cccc(OC)c1)-c1oncc1CCC2" , is growth less than 70%?
met
